biological target: human recombinant ETA receptors (Homo sapiens); experiment: Inhibition of [125I]ET-1 binding to membranes from CHO cells carrying human ETA receptors
Measurement Type: pIC50
# reply with the number alone; pIC50 is -log10 of concentration in mol/L

Entry CCCCS(=O)(=O)Nc1nc(C2CC2)nc(OCCOc2ncc(Br)cn2)c1-c1ccc(C)cc1 [Example 77] , human recombinant ETA receptors (Homo sapiens) data, pIC50 value: 8.64

Observed pIC50 on human recombinant ETA receptors (Homo sapiens), entry CCCS(=O)(=O)Nc1ncnc(OCCOc2ncc(SC)cn2)c1-c1ccc(Br)cc1 [Example 72] , equals 9.22

Fill in: human recombinant ETA receptors (Homo sapiens) pIC50 for CCS(=O)(=O)Nc1nc(C2CC2)nc(OCCOc2ncc(OC)cn2)c1-c1ccc(C)cc1 [Example 63] = 7.60

Let me check: CCCS(=O)(=O)Nc1ncnc(OCCOc2ncc(OC)cn2)c1-c1ccc(Br)cc1 [Example 71] , system human recombinant ETA receptors (Homo sapiens), measured pIC50 is 8.44

Measured on human recombinant ETA receptors (Homo sapiens), COc1cnc(OCCOc2ncnc(NS(C)(=O)=O)c2-c2ccc(Br)cc2)nc1 [Example 54] has a documented pIC50 of 7.74

Record CCCS(=O)(=O)Nc1ncnc(OCCOc2ncc(OC)cn2)c1Oc1ccccc1OC [Example 33] ; system human recombinant ETA receptors (Homo sapiens); pIC50 = 7.40

Entry CCCS(=O)(=O)Nc1ncnc(OCCOc2ncc(OC)cn2)c1-c1ccc(C)cc1 [Example 6] , tested on human recombinant ETA receptors (Homo sapiens), has a reported pIC50 of 7.77

// pIC50 (human recombinant ETA receptors (Homo sapiens)) for CSc1cnc(OCCOc2ncnc(NS(C)(=O)=O)c2-c2ccc(Br)cc2)nc1 [Example 55] = 8.89

* * *

target: human recombinant ETA receptors (Homo sapiens, UniProt P25101); assay: Inhibition of [125I]ET-1 binding to membranes from CHO cells carrying human ETA receptors; further: 2.5% DMSO
Sequence (P25101 21-427): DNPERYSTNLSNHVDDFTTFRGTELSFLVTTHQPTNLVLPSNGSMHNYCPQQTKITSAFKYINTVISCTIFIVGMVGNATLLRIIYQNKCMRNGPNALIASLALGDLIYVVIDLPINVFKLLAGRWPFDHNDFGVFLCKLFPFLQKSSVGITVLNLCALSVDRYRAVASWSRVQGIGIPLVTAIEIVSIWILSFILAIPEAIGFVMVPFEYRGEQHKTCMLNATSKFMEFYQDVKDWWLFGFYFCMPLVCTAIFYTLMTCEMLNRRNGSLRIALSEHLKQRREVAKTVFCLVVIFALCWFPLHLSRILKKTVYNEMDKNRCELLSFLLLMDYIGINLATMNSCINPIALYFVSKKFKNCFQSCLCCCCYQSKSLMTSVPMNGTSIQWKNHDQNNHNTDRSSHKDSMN
// returns Not fulfilled unless IC50 is strictly below 10 nM, in which case Fulfilled

QUERY: For COc1ccccc1Oc1c(NS(C)(=O)=O)ncnc1OCCOc1ncc(SC)cn1 , is the recorded IC50 below the cut-off of 10 nM?
RESULT: Not fulfilled

QUERY: Just wondering, is IC50 of CCS(=O)(=O)Nc1ncnc(OCCOc2ncc(SC)cn2)c1-c1ccc(Cl)cc1 below 10 nM?
RESULT: Fulfilled

QUERY: # strict comparison: is reported IC50 < 10 nM? input = CCCCS(=O)(=O)Nc1ncnc(OCCOc2ncc(OC)cn2)c1Oc1cccc(OC)c1
RESULT: Fulfilled

QUERY: Please determine if CCCCS(=O)(=O)Nc1ncnc(OCCOc2ncc(SC)cn2)c1-c1ccc(C)cc1 is below 10 nM in terms of IC50.
RESULT: Fulfilled

QUERY: Find out if reported IC50 for CCCCS(=O)(=O)Nc1nc(-c2ncccn2)nc(OCCOc2ncc(OC)cn2)c1Oc1ccccc1OC is less than 10 nM
RESULT: Not fulfilled

QUERY: For this molecule, is IC50 lower than 10 nM? CCCCS(=O)(=O)Nc1nc(C2CC2)nc(OCCOc2ncc(SC)cn2)c1-c1ccc(C)cc1
RESULT: Fulfilled

QUERY: Below 10 nM on IC50? Entry CCS(=O)(=O)Nc1ncnc(OCCOc2ncc(OC)cn2)c1-c1ccc(Cl)cc1
RESULT: Not fulfilled

QUERY: Dear reviewer, please state whether CCCCS(=O)(=O)Nc1ncnc(OCCOc2ncc(S(C)(=O)=O)cn2)c1-c1ccc(Br)cc1 has IC50 strictly beneath 10 nM.
RESULT: Fulfilled
